Each entry below carries its reported growth inhibition.
# measurementNotes: NCI Yeast Anticancer Drug Screen. Data for the mec2-1 strain (AID 157)
# statedConditions: S. cerevisiae mec2-1 strain, at 11.0 µM, active compounds read high
# Protocol: Growth inhibition of yeast strains with defined genetic alterations is measured as a screen for potential anti-cancer activity. Selected strains with alterations in DNA damage repair or cell cycle control were exposed to compounds and growth inhibition was measured relative to vehicle treated controls. The strain used in this assay is mec2-1
The panel holds about 79,000 compounds, 15% with a hit somewhere; the sample as a whole holds those more often. Calls of active or inactive are those of the source. Rule as the data show it: active = growth inhibition above about 70%; inactive = the rest.
parameter: growth inhibition

> print(dat)
                                   molecule          parameter    valuemeasured
1               Nc1cc(F)cc2c1-c1ccc(F)cc1C2  growth inhibition    2% (inactive)
2                Cc1cc(Cl)nc2nc(Cl)c(N)cc12  growth inhibition   -7% (inactive)
3  CN[C@@H]1C[C@H]2O[C@@](C)([C@@H]1OC)n1c3ccccc3c3c4c(c5c6ccccc6n2c5c31)C(=O)N[C@@H]4O  growth inhibition  -36% (inactive)
4  OC(CN1CCCCC1)c1cc(Cl)c(Cl)c(Cl)c1 (configuration not stated)  growth inhibition   15% (inactive)
5  Clc1c(Cl)c(Cl)c2c(nnn2C2CCCO2)c1Cl (configuration not stated)  growth inhibition   10% (inactive)
6       CCOC(=O)CNC(=O)c1[nH]cnc1/N=N/N(C)C  growth inhibition   -8% (inactive)
7       CN(C)c1ccc(/C=C/c2ccnc3ccccc23)cc1N  growth inhibition   -7% (inactive)

* * *

# measurementNotes: NCI Yeast Anticancer Drug Screen. Data for the rad50EPP+ strain (AID 151);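 also: 0% = growth of vehicle-treated control cultures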
# statedConditions: S. cerevisiae rad50 mutant strain, at 11.0 µM, active compounds read high
About 79,000 compounds went through this panel and 15% of them were active in at least one assay; those are over-represented in the sample as a whole.
Some molecules, each annotated with its measured growth inhibition.
parameter: growth inhibition (%)

> print(dat)
                                   molecule          parameter  valuemeasured
1        COc1cc(N)ccc1Nc1c2ccccc2nc2ccccc12  growth inhibition             10
2  CC1=CC2C(C(C)C)CC1C1C(=O)OC(=O)C21 (stereo not drawn)  growth inhibition             10
3  O=C(N/N=C\c1c(Cl)cccc1Cl)N/N=C/c1c(Cl)cccc1Cl  growth inhibition             10

* * *

# measurementNotes: NCI Yeast Anticancer Drug Screen. Data for the CLN2oe strain (AID 163);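 also: 0% = growth of vehicle-only control cultures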
# statedConditions: S. cerevisiae CLN2oe strain, at 1.2 µM, active compounds read high
The panel holds about 79,000 compounds, 15% with a hit somewhere; the sample as a whole holds those more often.
Attribute: growth inhibition
parameter: growth inhibition (%)

> print(dat)
                                    molecule  valuemeasured
 1            BrCc1ccccc1C(c1ccccc1)c1ccccc1              8
 2                    Nc1ccc2c(c1)sc1ccccc12             -2
 3                  CC(=O)CC(=O)/C=C/c1cccs1            -27
 4  Clc1c(Cl)c(Cl)c2c(nnn2C2CCCO2)c1Cl (stereo not given)            -11
 5  C/C(=N\NC(=S)NNC(=S)N(C)c1ccccc1)c1ccccn1             17
 6  COc1ccc(N=N/C(=N\NC(=O)c2cc(Br)ccc2O)c2ccc(N(CCC#N)CCC#N)cc2OC)cc1             11
 7  O=C(O)c1cccc2cccc(-c3c4ccc(=O)cc-4oc4cc(O)ccc34)c12             16
 8             CCN(CC)N=Nc1c(C(N)=O)n[nH]c1C             -5
 9          COC(=O)c1n[nH]c(C)c1N=NN(C)CCC#N             -2
10  CNc1nc(C)nc2c1cnn2-c1ccc([N+](=O)[O-])cc1             -6

* * *

# measurementNotes: NCI Yeast Anticancer Drug Screen. Data for the CLN2oe strain (AID 163);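 also: 0% = growth of vehicle-only control cultures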
# statedConditions: S. cerevisiae CLN2oe strain, at 100.0 µM, active compounds read high
Compounds without any hit were thinned out: in the full panel of roughly 79,000, 15% have a hit.
parameter: growth inhibition (%)

> print(dat)
                                    compound  valuemeasured
 1  CN(CC(=O)O)c1ccc(/C=C/c2ccnc3ccccc23)cc1            -12
 2  COc1ccc2oc(-c3ccc(Cl)cc3)c(N3CCN(C)CC3)c2c1             98
 3  Cc1ccc(Nc2c3c(c(C#N)c4nc5ccccc5n24)CCCC3)cc1             62
 4              Cc1ccc(N=Nc2ccc(O)c(C)c2)cc1             78
 5             CCN(CC)N=Nc1c(C(N)=O)n[nH]c1C              4
 6               Cn1c2nc3ccccc3c-2nc2ccccc21             97
 7  O=C(Nc1ccc2c(c1)Cc1c-2ccc([N+](=O)[O-])c1F)C(F)(F)F             -4
 8  CCN(CC)CC(O)C1CCC(c2ccccc2)CC1 (stereo not drawn)             80
 9                  Oc1ccccc1N=Cc1ccc(Cl)cc1              9
10           Cc1cc(O)c2c(c1)C(=O)C=C(Br)C2=O             97
11                 O=C1C=CC(=O)N1c1ccc(I)cc1             99
12            Cc1cccc(/C=N\NC(=S)N2CCCCC2)n1             91
13  O=[N+]([O-])c1cccc2nc3ccccc3c(NCCc3cccc[n+]3[O-])c12             86
14                    CCCCCC(=O)c1ccc(O)cc1O             99
15  Clc1c(Cl)c(Cl)c2c(nnn2C2CCCO2)c1Cl (stereo not drawn)             33
16                 Cc1ccc(CNc2ccc(Br)cc2)cc1             81
17  N#C/C(=C/N1C(=O)/C(=C/c2ccc([N+](=O)[O-])cc2)SC1=S)c1nc2ccccc2s1             55
18  CC1(C)C(C=O)=CCC1CC(N)=O (stereo not drawn)             12
19           CCOC(=O)Nc1ccc2c(c1)Cc1ccccc1-2             -7
20  CC[C@@]1(OC(=O)CN(C)C)C(=O)OCc2c1cc1n(c2=O)Cc2cc3c(N)cccc3nc2-1             80
21  CC[C@@]1(OC(=O)CCC(=O)O)C(=O)OCc2c1cc1n(c2=O)Cc2cc3ccccc3nc2-1             87
22                  Oc1ccc(Br)cc1C=NC1CCCCC1             98
23  [Pt].c1ccc(P(CCP(c2ccccc2)c2ccccc2)CCP(c2ccccc2)c2ccccc2)cc1             88

* * *

# measurementNotes: NCI Yeast Anticancer Drug Screen. Data for the bub3 strain (AID 167)
# statedConditions: S. cerevisiae bub3 mutant strain, at 5.0 µM (retest, dose inferred, filed as 0.5), active compounds read high
The panel holds about 79,000 compounds, 15% with a hit somewhere; the sample as a whole holds those more often.
parameter: growth inhibition (%)

> print(dat)
                                entrysmiles          parameter  valuemeasured
1  CN(C)CCN1C(=O)c2cccc3cc([N+](=O)[O-])cc(c23)C1=O  growth inhibition             -6
2      Cc1cccc(/C=N/NC(=S)N(C)CCc2ccccn2)n1  growth inhibition             56
3             OB(O)c1ccccc1C#Cc1ccccc1B(O)O  growth inhibition             -1
4  Cc1ccccc1NC(=O)Cc1csc(N/N=C2\NC(=O)/C(=C/c3cccc([N+](=O)[O-])c3)S2)n1  growth inhibition            -25
5  O=C(N/N=C\c1c(Cl)cccc1Cl)N/N=C/c1c(Cl)cccc1Cl  growth inhibition             36
6  O=[N+]([O-])c1c(/C=N/Nc2ccccc2)oc(-c2ccc3c(c2)OCO3)c1-c1ccc2c(c1)OCO2  growth inhibition            -21
7     CCCCCCSc1nc(COC(=O)NC)c(COC(=O)NC)n1C  growth inhibition             -2
8       CCOC(=O)CNC(=O)c1[nH]cnc1/N=N/N(C)C  growth inhibition              3
9              Nc1ccc2c(=S)c3ccccc3[nH]c2c1  growth inhibition              9

Provenance of the data: PubChem BioAssay (NCI)
